Assay: Oral bioavailability in Sprague-Dawley rat at 1 mg/kg administered using cyclodextrin-meglumine as vehicle
Type: ADME, organism-based
Conditions: in vivo
PROPERTY_NAME: bioavailability
Lab note: write values as number then unit, every time.

Read off the recorded bioavailability for Cc1ccc(S(=O)(=O)NC(=O)N2CCC(N3CCC(Oc4ccc(Cl)c(Cl)c4)CC3)CC2)cc1
44%

---

Test: Oral bioavailability in Sprague-Dawley rat at 1 mg/kg administered using 0.1%tween-1%CMC as vehicle
Format: ADME, organism-based
Conditions: in vivo
Below, each of the compounds is paired with its reported bioavailability value.
The figure you give is taken to be in %; do not add the unit.

Known bioavailability results, listed for orientation:
CPD_SMILES | bioavailability / %
Cc1ccc(S(=O)(=O)NC(=O)N2CCC(N3CCC(Oc4ccc(Cl)c(Cl)c4)CC3)CC2)cc1 | 18
Cc1ccc(S(=O)(=O)[N-]C(=O)N2CCC(N3CCC(Oc4ccc(Cl)c(Cl)c4)CC3)CC2)cc1.[Na+] | 15
COc1ccc(S(=O)(=O)NC(=O)N2CCC(N3CCC(Oc4ccc(Cl)c(Cl)c4)CC3)CC2)cc1 | 4

// moving on: another record for bioavailability
Could you please provide reported bioavailability for Cc1ccc(S(=O)(=O)NC(=O)N2CCC(N3CCC(Oc4ccc(Cl)cc4C)CC3)CC2)cc1 ? Thanks!
6
